Recorded values, source PubChem BioAssay (NCI).

Each entry below carries its reported growth inhibition.
- method_description: NCI Yeast Anticancer Drug Screen. Data for the mlh1 rad18 strain (AID 175)
- measurement_context: S. cerevisiae mlh1 rad18 strain growth inhibition; at 50.0 µM; active compounds read high
Compounds without any hit were thinned out: in the full panel of roughly 79,000, 15% have a hit.
Please reply with the bare figure in % and do not write the unit itself.

# count of solved cases: 4
compound: Cc1c(N=Nc2cccc(Cl)c2Cl)c(-c2ccccc2)nn1C(=S)S
quantitative_result: 28.2
//
compound: CN(C)c1ccc(/C=C/c2nc3ccc([N+](=O)[O-])cc3[nH]2)cc1
quantitative_result: 0.1
//
compound: COc1ccc(CNC(=O)C2C(=O)C(=O)N(Cc3ccc(OC)c(OC)c3)C2=O)cc1OC (stereo not given)
quantitative_result: 14.7
//
compound: CC(C)c1ccc(NC(=S)NCCO)cc1
quantitative_result: -10.9

Please find the next compound below.
I'd like to know its growth inhibition. The compound in question is Cc1nc(C)c(C(=O)NNC(=O)Cc2ccccc2)cc1C(=O)NNC(=O)Cc1ccccc1
-32.4

====

- method_description: NCI Yeast Anticancer Drug Screen. Data for the rad50 strain (AID 155);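 note: 0% = growth of vehicle-only cultures of the same strain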
- measurement_context: S. cerevisiae rad50 strain growth inhibition; at 50.0 µM; active compounds read high
This is part of a sample that, as a whole, favours compounds with a hit. Of some 79,000 tested, about 15% had one in any assay. Where a SMILES comes first, the peptide text is derived from it. [ ]: non-standard residue; d: D form. The star is where a group is joined. ξ: configuration not given here. Bz = O=C(c1ccccc1)*; Bn = c1ccc(C*)cc1; ξC = NC(CS)C(=O)O
In this section, each of the compounds is paired with its reported growth inhibition.
Report the figure in % without appending any unit label.

compound: C=CCc1cc(OC)c2c(c1)C(O)CC(c1ccccc1)O2 (stereo unspecified)
growth inhibition [%]: 15.2
//
compound: COC1OC(CCl)C(Cl)C(Cl)C1O (stereo unspecified)
growth inhibition [%]: 17.7
//
compound: CNC(=O)c1ccccc1O
growth inhibition [%]: 21.2
//
compound: Cc1ccc(NC(=S)SCc2ccc(Cl)c(Cl)c2)cc1Br
growth inhibition [%]: 29.3
//
compound: C=CCOC(=O)Nc1ccc(S(=O)(=O)N(CCC)CCC)cc1
growth inhibition [%]: -13.3
//
compound: CC(=O)N(C(=O)CC(=O)NN)c1ccc(Cl)cc1
growth inhibition [%]: -19.1

Request the reported growth inhibition associated with CCc1ccccc1NC(=O)N1CCOCC1
-8.45

Report growth inhibition for O=C(COc1ccccc1)NCc1ccc(Cl)cc1 please.
2.4

Please look up its growth inhibition: CC(=O)CC(=O)c1cc(C(C)=O)c(O)c(C(C)=O)c1
-11.8

# input compound: CCCCCCCCCCCCCCSc1ccc2ccccc2c1 ; wanted: its growth inhibition
-9.15

Fill in: growth inhibition of Cc1cc(-n2nnc(C(=O)O)c2-c2ccccc2)c2ccc(Cl)cc2n1 is ___
-19.1

Fill blank: measured growth inhibition of the compound CC(=O)Nc1cc(OC(C)=O)c(OC(C)=O)c2ccccc12 is ____.
-7.45

For the compound C[C@@H]1C(N2CCCC2)=CC(=O)OC1c1ccccc1 (stereo partly specified) , what growth inhibition is on record?
-3.65

Could you tell me which growth inhibition is on file for COC(=O)c1c2c(cc3nc4ccccc4nc13)OCO2 ?
26.4

Record request: growth inhibition value, item NC(Cc1ccc(O)c(O)c1)C(=O)OCc1ccccc1 (stereo unspecified)
67.6

Data request, read-out growth inhibition, for c1ccc2cc3c(cc2c1)oc1cc2ccccc2cc13
-14.1

Which growth inhibition is reported for this compound? C=CS(=O)(=O)CCCCCCCCCCCCCC
28.1

Form field: reported growth inhibition of CC(=O)Nc1cc(F)c(NC(C)=O)c(F)c1
-2.05

What growth inhibition value was documented for this compound, O=c1cc[nH]c2c(Cl)cccc12 ?
-8.15

Need growth inhibition of COC(=O)c1ccccc1-n1c(-c2ccc([N+](=O)[O-])cc2)csc1=NC(=O)c1cccc([N+](=O)[O-])c1 , thanks.
-2.15

Request the reported growth inhibition associated with COc1ccc(C2C(N)=NCC2c2ccccn2)cc1 (stereo unspecified)
-21.9

Dear colleague, I am looking for the recorded growth inhibition of the following compound: O=C(CNC(=O)c1ccccc1)NC(CSCc1ccccc1)C(=O)O (stereo unspecified) (Bz-Gly-[ξC](Bn)-OH)
-12.4

Look up growth inhibition: CCc1cccc(C(C)C)c1NC(=O)/C(=N\NC(N)=O)C(C(=O)OC)c1cnc2ccccc2n1 (stereo unspecified)
19.8

// lookup growth inhibition for CC(=O)Nc1cc2c(cc1Br)Cc1cc(Br)ccc1-2
-4.15

Any idea what growth inhibition was measured for CCOc1c(/C=C\c2cc(/C=C/c3cccc(OC)c3OCC)c([N+](=O)[O-])cc2[N+](=O)[O-])cccc1OC ?
16.4

Need growth inhibition, item COc1ccc(S(=O)(=O)N/N=C/c2cccc([N+](=O)[O-])c2O)cc1
9.3

Tell me the measured growth inhibition of NC(=O)NC(=O)CC1NC(=O)NC1=O (stereo unspecified) , please.
9.25

====

- method_description: NCI Yeast Anticancer Drug Screen. Data for the mec2-1 strain (AID 157)
- measurement_context: S. cerevisiae mec2-1 strain, at 50.0 µM, active compounds read high
This is part of a sample that, as a whole, favours compounds with a hit. Of some 79,000 tested, about 15% had one in any assay.
quantity_kind: growth inhibition (%)
I only need the number, in %, no unit after it.

// solved cases for growth inhibition follow
molecule: Nc1cccc(C(F)(F)F)c1
quantitative_result: 0.25
//
molecule: CCOC1(c2ccccc2)c2ccccc2Sc2ccccc21
quantitative_result: 12.7
//
molecule: CCC/C=C(/CC)COC(C)=O
quantitative_result: -19.1
//
molecule: COc1cc(OC)c2cc(C(=O)c3cccc4ccccc34)c(=O)oc2c1
quantitative_result: -22.8
//
molecule: OCc1c(CO)c(Br)c2ccccc2c1Br
quantitative_result: 3.75
//
molecule: Oc1cccc2ccc[n+](CCc3ccccc3)c12
quantitative_result: 9.15

Which growth inhibition value belongs to NCCSCCN ?
-2.45

I'd like to know its growth inhibition. The molecule in question is CC(=O)OC1CCC23COC(CC(C)C2C)C3(Cl)C1 (centres undefined)
-4.65

Suppose we examine the molecule C=C(C)C1CC=C(/C=N/O)CC1 (centres undefined) ; what growth inhibition value has been reported?
4

Tell me the measured growth inhibition of CCCCNC(=O)c1ccc([N+](=O)[O-])cc1 , please.
12

# query: growth inhibition of entry CN(C)CC(CN(C)C)C(=O)/C=C/c1ccc(O)cc1
-2.25

For the molecule shown here, CN(C)C(=O)Nc1cccc2nsnc12 , give the reported growth inhibition.
-2.75

GET /values?readout=growth inhibition&item= CSc1nc2nc[nH]c(=O)c2[nH]1
-11.6

Please report the recorded growth inhibition for CC(C)N1CCN(c2ccncc2S(=O)(=O)N2CCCCC2)CC1 .
-23.2

Request the reported growth inhibition associated with COC1OC(COS(C)(=O)=O)C(OS(C)(=O)=O)C(OC(=O)c2ccccc2)C1OS(C)(=O)=O (centres undefined)
8

So what does the record say about growth inhibition for CC1(C)CCNc2ccccc2S1 ?
1.7

Need growth inhibition of C[N+](C)(C)c1ccc2c(c1)CCC/C2=N\N , thanks.
9

Could you share which growth inhibition value was measured for [O]=[W](=[O])([OH])[OH] ?
-13.2

Data request, read-out growth inhibition, for Cc1cc(C)n(C2OC(CO)C(O)C(O)C2O)c(=S)c1C#N (centres undefined)
14.8

Need growth inhibition of O=C(/C=C/c1cccc(O)c1)c1ccccc1 , thanks.
8.25

# input molecule: CC(C)CCN(CC(C)C)C(=O)c1ccc([N+](=O)[O-])cc1 (tested in a mixture with another compound) ; wanted: its growth inhibition
0.6

Could you tell me which growth inhibition is on file for CCOC(=O)C(CN1CCN(CC(NC=O)(C(=O)OCC)C(=O)OCC)CC1)(NC=O)C(=O)OCC ?
-28.3

What value of growth inhibition has been reported for the following molecule? CCCCCCCCCCCCCCCCS(=O)(=O)N/N=c1\cc(-c2ccccc2Cl)c2ccccc2n1C
-16.9

// query growth inhibition value for entry Cn1c(=O)c2[nH]c(C3CC(=O)CC(c4nc5c([nH]4)c(=O)n(C)c(=O)n5C)N3)nc2n(C)c1=O (centres undefined)
5.1

Value lookup for growth inhibition; key = CC(=O)NCCOC(=O)c1ccccc1
4.75

Entry under review: CCOc1ccccc1NC(=O)CC(=O)N1N=C(C)C(N=Nc2ccccc2C(=O)O)C1=O (centres undefined) . Reported growth inhibition?
3.5

Given the entry CCCCCCCC/C=C\CCCCCCCC(=O)NCCN(CCN)C(=O)CCCCCCC/C=C\CCCCCCCC , report its measured growth inhibition.
-18.4

Need growth inhibition of Cc1c2cccc(Br)c2c[n+]2ccccc12 , thanks.
18.4

Which growth inhibition value belongs to Cc1n[nH]c2ccccc2c1=O ?
-17.9

I am curious: what growth inhibition value has been reported for CC(C(=O)O)C1(O)CCCCC1 (centres undefined) ?
-13.9

Please give the measured growth inhibition for this molecule: CC(C)(C)CC(C)(C)c1cc2c(O)c(c1)Cc1cc(C(C)(C)CC(C)(C)C)cc(c1O)Cc1cc(C(C)(C)CC(C)(C)C)cc(c1O)Cc1cc(C(C)(C)CC(C)(C)C)cc(c1O)Cc1cc(C(C)(C)CC(C)(C)C)cc(c1O)C2
33.4

Report growth inhibition for CC(=O)Oc1ccc2cc(Br)ccc2c1N(C(C)=O)C(C)=O please.
-7.35

Find the recorded growth inhibition belonging to CN1CCc2c1nc(-c1ccc([N+](=O)[O-])cc1)c1c2N(C)CC1 and report it.
0.7
